target: fMet-Leu-Phe receptor (Homo sapiens); assay: small-molecule ligands of human FPR – U937-FPR cells, fMLFK-FITC, flow cytometry, primary screen (AID 362); conditions: fMLFK-FITC displacement; active compounds read high, concentration not given here;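 as to inhibition: plate controls were buffer control wells for no effect and unlabeled fMLFF blocking peptide for full effect; higher means less cell fluorescence so more probe displaced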
In all, about 4,300 compounds went through this assay and about 60 (1%) were called active. What follows is part of a selection rich in actives, with near analogues and random picks from the rest.
readout: inhibition

Example entries begin here.
O=C(Nc1nccs1)c1cc(N2C(=O)C3C4CCC(C4)C3C2=O)ccc1Cl (stereo not given) = inactive
COc1cc(C2C(C(=O)OC3CCCCC3)=C(C)NC3=C2C(=O)CC(C)(C)C3)cc(Cl)c1O (stereo not given) = 10.9% (inactive)
CC(=O)N1CCc2cc(S(=O)(=O)NC(C(=O)Nc3ccccn3)C(C)C)ccc21 (stereo not given) = inactive
COc1cc2c(C(=O)N(C)c3cccc(C(F)(F)F)c3)cn(CC(C)C)c(=O)c2cc1OC = inactive

Which inhibition is reported with fMet-Leu-Phe receptor (Homo sapiens) for this entry: CCCOC(=O)c1c(NC(=O)C2C3C=CC(C3)C2C(=O)O)sc2c1CCCC2 (stereo not given) ?
inactive

###

biological target: fMet-Leu-Phe receptor (Homo sapiens) (UniProt P21462); experiment: small-molecule ligands of human FPR – U937-FPR cells, fMLFK-FITC, flow cytometry, primary screen (AID 362); conditions: fMLFK-FITC displacement, concentration not given here
Sequence (P21462 whole entry, looked up): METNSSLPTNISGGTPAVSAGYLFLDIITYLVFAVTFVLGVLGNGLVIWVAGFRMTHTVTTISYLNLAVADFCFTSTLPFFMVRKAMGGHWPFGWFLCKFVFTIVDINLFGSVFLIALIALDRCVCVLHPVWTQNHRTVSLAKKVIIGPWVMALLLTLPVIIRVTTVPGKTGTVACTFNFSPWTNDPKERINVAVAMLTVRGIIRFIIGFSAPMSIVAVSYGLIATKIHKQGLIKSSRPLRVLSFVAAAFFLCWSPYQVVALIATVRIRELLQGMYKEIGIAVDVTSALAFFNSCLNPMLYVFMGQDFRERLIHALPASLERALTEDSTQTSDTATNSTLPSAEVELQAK
Screen size: about 4,300 compounds; about 60 (1%) were called active.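 How the source made its calls: active means inhibition of labelled peptide binding to the formyl peptide receptor of at least 65%; inactive means the rest.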 The sample as a whole holds a higher share of actives than the screen did.
API: response.call in YES for active, NO for inactive

Field: outcome | Entry: `CCN(CCCNC(=O)Cn1cnc2sc(C)c(S(=O)(=O)N3CCC(C)CC3)c2c1=O)c1cccc(C)c1`
NO

Try this compound too: `O=C(CSc1nc(-c2ccccc2)nc2c1CCCC2)N1CCCCC1`
YES

Try this compound too: CCOCCOC(=O)C1=C(C)NC2=C(C(=O)C(C(=O)OC)C(C)C2)C1c1cccc(Cl)c1 (centres undefined)
NO

Try this compound too: `O=C(CSc1nc(-c2ccccc2)nc2c1CCCC2)N1CCOCC1`
NO

Try this compound too: `O=C(O)CSc1nc(-c2ccccc2)nc2c1CCCC2`
NO

Try this compound too: COc1c(OC(C)=O)ccc(C2Nc3ccc4ccccc4c3C3=C2C(=O)CC(C)(C)C3)c1[N+](=O)[O-] (centres undefined)
NO

Try this compound too: CCCOCCOC(=O)C1=C(C)NC2=C(C(=O)C(C(=O)OC)C(C)C2)C1c1cccc(OC)c1 (centres undefined)
NO

Try this compound too: COc1ccc(Oc2c(C(F)(F)F)oc3cc(OC(C)C(=O)OCCC(C)C)ccc3c2=O)cc1 (centres undefined)
NO

Try this compound too: CCOC(=O)C1C(c2cccc([N+](=O)[O-])c2)NC(=O)NC1(O)C(F)(F)F (centres undefined)
NO

###

target: fMet-Leu-Phe receptor (Homo sapiens); assay: small-molecule ligands of human FPR – U937-FPR cells, fMLFK-FITC, flow cytometry, primary screen (AID 362); details: fMLFK-FITC displacement, concentration not given here
Hit rate of the full screen: of about 4,300 compounds, about 60 (1%) were called active.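 How the source made its calls: active means inhibition of labelled peptide binding to the formyl peptide receptor of at least 65%; inactive means the rest.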 Shown is part of a subset that was picked to be rich in actives.
API: response.call in Y (active), N (inactive)

Field: outcome | Entry: CCOC(=O)c1c(NC(=O)C2CCCCC2C(=O)O)sc(C)c1-c1ccc(Cl)cc1 (stereo not given)
Y

Try this molecule too: CCCOC(=O)c1c(NC(=O)C2CCCCC2C(=O)O)sc(C)c1-c1ccc(F)cc1 (stereo not given)
N

Try this molecule too: `O=S(=O)(c1ccc(-c2csc(=Nc3cccc4ccccc34)n2CCCCO)cc1)N1CCCCC1`
N

Try this molecule too: `CCCCN(C)Cc1c(O)ccc2c(=O)c(-c3ccccc3OC)c(C(F)(F)F)oc12`
N

Try this molecule too: Cc1sc(NC(=O)C2C3CCC(C3)C2C(=O)O)c(C(N)=O)c1-c1ccc(C(C)(C)C)cc1 (stereo not given)
Y

###

target: fMet-Leu-Phe receptor (Homo sapiens); experiment: small-molecule ligands of human FPR – U937-FPR cells, fMLFK-FITC, flow cytometry, primary screen (AID 362); conditions: fMLFK-FITC displacement; active compounds read high, concentration not given here;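 as to inhibition: plate controls were buffer control wells for no effect and unlabeled fMLFF blocking peptide for full effect; higher means less cell fluorescence so more probe displaced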
Hit rate of the full screen: of about 4,300 compounds, about 60 (1%) were called active. Only a selection was taken, and actives are over-represented in it overall.
Kind request: treat 20% as inclusive, so inhibition at 20% or higher is Y, anything lower is N.

Please indicate if the recorded inhibition for COC(=O)c1c(-c2cc(C)ccc2C)csc1NC(=O)C1CCCCC1C(=O)O (stereo not given) meets or exceeds 20%.
Y

Try this compound too: COC(=O)c1c(-c2ccc(C)c(C)c2)csc1NC(=O)C1CCCCC1C(=O)O (stereo not given)
Y

Try this compound too: `CCCc1cc2c(=O)c(-c3cc4ccccc4o3)coc2cc1OC(C)=O`
Y

Try this compound too: COc1cc(C2C(C(=O)OC3CCCCC3)=C(C)NC3=C2C(=O)CC(c2ccc(Cl)cc2)C3)ccc1OC(C)=O (stereo not given)
N

Try this compound too: `CCOC(=O)C1CCN(C(=O)c2cn(CC(C)C)c(=O)c3cc(OC)c(OC)cc23)CC1`
N

###

target: fMet-Leu-Phe receptor (Homo sapiens) (UniProt P21462); assay: small-molecule ligands of human FPR – U937-FPR cells, fMLFK-FITC, flow cytometry, primary screen (AID 362); details: fMLFK-FITC displacement; active compounds read high, concentration not given here;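 as to inhibition: plate controls were buffer control wells for no effect and unlabeled fMLFF blocking peptide for full effect; higher means less cell fluorescence so more probe displaced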
Out of some 4,300 compounds screened, about 60 (1%) were called active. This is one part of a sample in which actives are shown more often than they occur.
readout: inhibition

Example entries begin here.
CCOC(=O)Oc1ccc2c(=O)c(Oc3cccc(C)c3)c(C(F)(F)F)oc2c1 = inactive
CCOc1ccccc1C1C2=C(CC(C)(C)CC2=O)Nc2nc(C(F)(F)F)nn21 (stereo not given) = 14.1% (inactive)
COc1ccc2nc(NC(=O)C(NS(=O)(=O)c3ccc4c(c3)CCN4C(C)=O)C(C)C)sc2c1 (stereo not given) = inactive
CCCc1cc(=O)oc2cc(OCC(=O)OCC)cc(OCC(=O)OCC)c12 = inactive
CCN(Cc1ccccc1)Cc1c(O)ccc2c(=O)c(Oc3ccc(OC)cc3)c(C(F)(F)F)oc12 = inactive

Which inhibition is reported with fMet-Leu-Phe receptor (Homo sapiens) (UniProt P21462) for this entry: `CC(C)CN(CC(C)C)S(=O)(=O)c1ccc(C(=O)Nc2cccc(-c3nc4ccccc4[nH]3)c2)cc1` ?
4.7% (inactive)

Try this molecule too: CCOc1ccc(C2C(C(=O)OC3CCCCC3)=C(C)NC3=C2C(=O)CCC3)cc1OC (stereo not given)
20.2% (inactive)

Try this molecule too: CC1CC(C)CN(C(=O)c2cn(C3CCCC3)c(=O)c3c2c2ccccc2n3C)C1 (stereo not given)
inactive

Try this molecule too: `COc1cc2c(C(=O)NCCc3ccc(Cl)cc3)cn(CC(C)C)c(=O)c2cc1OC`
inactive

Try this molecule too: COc1ccc(C2NC(=O)NC(C)=C2C(=O)OC2CCCCCC2)cc1 (stereo not given)
inactive

Try this molecule too: CCC(C)C(Nc1ncnc2sc3c(c12)CCC3)C(=O)O (stereo not given)
0.8% (inactive)

Try this molecule too: `CCN(CC)CC(=O)N1CCCc2c1c(=O)oc1ccc(OC(C)=O)cc21`
inactive

Try this molecule too: `CC(C)CCn1c(CN2CCN(C(c3ccccc3)c3ccccc3)CC2)nc2c1c(=O)n(C)c(=O)n2C`
inactive

Try this molecule too: Cc1cc(C)c(S(=O)(=O)NCC2CCC(C(=O)NCC3CCCO3)CC2)c(C)c1 (stereo not given)
inactive

###

target: fMet-Leu-Phe receptor (Homo sapiens) (UniProt P21462); assay: small-molecule ligands of human FPR – U937-FPR cells, fMLFK-FITC, flow cytometry, primary screen (AID 362); settings: fMLFK-FITC displacement; active compounds read high, concentration not given here;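 as to inhibition: plate controls were buffer control wells for no effect and unlabeled fMLFF blocking peptide for full effect; higher means less cell fluorescence so more probe displaced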
Among all 4,300 compounds or so, about 60 (1%) were called active. The full list was thinned out, with actives kept by preference.
readout: inhibition

Example entries begin here.
CCOC(=O)c1c(NC(=O)C2CCCCC2C(=O)O)sc(C)c1-c1ccc(C(C)(C)C)cc1 (centres undefined) = 29.4% (inactive)
COc1ccccc1C1/C(=C(\O)c2ccc(F)cc2)C(=O)C(=O)N1CCCCCC(=O)O (centres undefined) = 11.2% (inactive)
COc1ccc(N2C3=C(C(=O)CC(C)(C)C3)C(c3ccc(F)cc3)C3=C2CC(C)(C)CC3=O)c(OC)c1 = inactive
O=C(C1CCCN(S(=O)(=O)c2ccccc2)C1)N1CCCCC1 (centres undefined) = 7.6% (inactive)
CC(=O)Oc1ccc(C2Nc3c(C(=O)O)ccc([N+](=O)[O-])c3C3C=CCC32)cc1 (centres undefined) = inactive

Would you kindly share the measured inhibition for COc1ccc(OC)c(C2/C(=C(\O)c3ccc(F)cc3)C(=O)C(=O)N2CCCCCC(=O)O)c1 (centres undefined) ?
84.5% (active)

Try this compound too: CCCCCOC(=O)c1cccc(N2C(=O)C3C4CCC(C4)C3C2=O)c1 (centres undefined)
inactive
